- systemUnderTest: EGFR T790M/L858R (Homo sapiens, UniProt P00533, L858R/T790M)
- Sequence (P00533 25-1210 T790M/L858R): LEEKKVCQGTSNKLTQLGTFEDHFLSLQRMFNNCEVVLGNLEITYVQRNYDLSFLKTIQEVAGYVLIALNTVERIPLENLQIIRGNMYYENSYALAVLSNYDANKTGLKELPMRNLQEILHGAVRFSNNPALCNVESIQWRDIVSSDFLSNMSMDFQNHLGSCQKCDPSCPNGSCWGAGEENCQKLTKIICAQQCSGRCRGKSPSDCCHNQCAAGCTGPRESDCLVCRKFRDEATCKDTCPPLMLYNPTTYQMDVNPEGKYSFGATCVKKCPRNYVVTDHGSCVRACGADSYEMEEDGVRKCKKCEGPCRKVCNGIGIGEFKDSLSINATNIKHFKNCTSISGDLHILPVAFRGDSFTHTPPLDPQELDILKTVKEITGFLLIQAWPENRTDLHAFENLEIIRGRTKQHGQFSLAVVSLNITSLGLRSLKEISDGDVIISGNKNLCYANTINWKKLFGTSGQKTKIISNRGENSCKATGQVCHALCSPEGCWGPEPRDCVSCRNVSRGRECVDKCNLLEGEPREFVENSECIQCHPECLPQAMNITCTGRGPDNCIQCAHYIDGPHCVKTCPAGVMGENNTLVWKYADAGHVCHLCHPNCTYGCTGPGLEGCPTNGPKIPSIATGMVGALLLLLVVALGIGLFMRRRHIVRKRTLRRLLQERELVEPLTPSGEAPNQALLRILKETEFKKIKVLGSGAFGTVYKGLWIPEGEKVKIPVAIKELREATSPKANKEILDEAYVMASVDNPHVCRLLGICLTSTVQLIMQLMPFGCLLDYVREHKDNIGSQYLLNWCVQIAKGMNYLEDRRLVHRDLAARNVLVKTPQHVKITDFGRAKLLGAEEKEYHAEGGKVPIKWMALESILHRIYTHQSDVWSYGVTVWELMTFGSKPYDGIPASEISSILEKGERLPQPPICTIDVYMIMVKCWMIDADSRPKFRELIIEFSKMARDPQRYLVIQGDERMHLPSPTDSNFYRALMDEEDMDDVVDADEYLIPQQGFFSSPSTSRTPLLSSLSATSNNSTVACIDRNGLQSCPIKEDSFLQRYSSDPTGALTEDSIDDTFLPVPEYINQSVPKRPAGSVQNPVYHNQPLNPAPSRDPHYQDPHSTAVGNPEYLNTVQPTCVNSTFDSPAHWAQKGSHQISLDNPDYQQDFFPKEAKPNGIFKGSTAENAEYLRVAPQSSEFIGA
- procedureDetails: Mutant EGFR T790M/L858R activity inhibition assay (Caliper mobility shift)
- condition: read-out: enzyme activity inhibition (IC50) EGFR T790M/L858R
assayReadout: IC50

1) C=CC(=O)Nc1cc(Nc2nccc(-n3c(=O)n(C)c4cc(Cl)ccc43)n2)c(OC)cc1N(C)CCN(C)C	< 1 nM
2) C=CC(=O)Nc1cc(Nc2nccc(-n3cc(Cl)c4ccccc43)n2)c(OC)cc1N(C)CCN(C)C	1 to 10 nM
3) C=CC(=O)Nc1cc(Nc2ncc(OC)c(-n3c(=O)n(C(C)C)c4ccccc43)n2)c(OC)cc1N(C)CCN(C)C	1 to 10 nM
